Experiment Summary: NCI Yeast Anticancer Drug Screen. Data for the rad14 strain (AID 159);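 also: 0% = growth of vehicle-treated control cultures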
Condition: S. cerevisiae rad14 strain growth inhibition; at 1.2 µM; hits give high values
Protocol: Growth inhibition of yeast strains with defined genetic alterations is measured as a screen for potential anti-cancer activity. Selected strains with alterations in DNA damage repair or cell cycle control were exposed to compounds and growth inhibition was measured relative to vehicle treated controls. The strain used in this assay is rad14
Compounds without any hit were thinned out: in the full panel of roughly 79,000, 15% have a hit.
Observed Property: growth inhibition (%)
Numeric answer only, unit % assumed.

The examples below pair each entry with its known result.
* Cc1ccc2c3ccc4c(c3n(C)c2c1)C(=O)C=CC4=O | -9
* COc1cc([C@@H]2c3cc4c(cc3[C@@H](Nc3ccc(NC(=O)c5cc([N+](=O)[O-])cn5C)cc3)[C@H]3COC(=O)[C@H]23)OCO4)cc(OC)c1O | 4

Item under review: CCCCNC1CCC2(SCCS2)c2[nH]c3ccccc3c21 (stereo not drawn) . Reported growth inhibition?
6

Given O=c1[nH]c(-c2ccccc2)nc2c1sc1nc3ccccc3n12 , state its recorded growth inhibition.
-24

growth inhibition lookup needed for CCC(C)OC(=O)Nc1ccc(C)c(NC(=O)OC(C)CC)c1 (stereo not drawn) , thanks.
0

###

compounds and their reported growth inhibition
Experiment Summary: NCI Yeast Anticancer Drug Screen. Data for the rad18 strain (AID 177)
Condition: S. cerevisiae rad18 mutant growth inhibition; at 1.2 µM; hits give high values
The panel holds about 79,000 compounds, 15% with a hit somewhere; the sample as a whole holds those more often.
Give the value in % but do not write % after it.

As a guide, the following entries are already answered.
- CCOC(=O)c1ccc(NC(=O)O/N=C(/Cl)C(C)C)cc1: -5
- c1ccc2c(c1)sc1c3cnccc3ccc21: -8

Which growth inhibition reading was recorded for the compound CC(C)=NOC(=O)Nc1ccc(Cl)cc1 ?
-32

Consider the compound shown here: O=c1ccc2ccccc2c2ccccc12 What is its recorded growth inhibition?
-4

Value lookup for growth inhibition; key = c1ccc2cc(NCNc3ccc4ccccc4c3)ccc2c1
-5

# get_value(readout='growth inhibition', item= O=[N+]([O-])c1cc(S(=O)(=O)Nc2ccccc2)ccc1Nc1ccccc1 )
-3

GET /values?readout=growth inhibition&item= N/C(=N/N=C/c1cc(Br)cc(Br)c1O)NO
-30

Request the reported growth inhibition associated with O=C(/C=C(/c1ccccc1)N1CCCCC1)c1ccccc1
-2

Sample O=C1/C(=C/c2ccccc2)CCCC1CN1CCCCC1 (stereo not given) — what was its growth inhibition?
34

May I ask what growth inhibition has been recorded for COc1cc(/C=N/Nc2nnc3c4ccccc4c4ncccc4c3n2)cc(OC)c1OC ?
11

Would you kindly share the measured growth inhibition for CC(C)C(C)/C=C\C(C)C1CCC2C3=CC=C4CC(O)CCC4(C)C3CCC21C (stereo not given) ?
-2

Fill blank: measured growth inhibition of the compound O=[N+]([O-])c1ccc(N/N=C/Cc2ccccc2)c([N+](=O)[O-])c1 is ____.
-2

# get_value(readout='growth inhibition', item= COC1CCC(O)C(/C=C/[N+](=O)[O-])C1 (stereo not given) )
12

###

Each record here notes measured growth inhibition.
Experiment Summary: NCI Yeast Anticancer Drug Screen. Data for the wt1 strain (AID 149);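 also: 0% = growth of vehicle-treated wt1 cultures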
Condition: S. cerevisiae wt1 strain (SPY 50644) growth inhibition; at 1.2 µM; hits give high values
The panel holds about 79,000 compounds, 15% with a hit somewhere; the sample as a whole holds those more often.
The reply should contain only the number, in %.

Examples from the recorded data:
* CC(C)=NOC(=O)Nc1ccc(Cl)cc1 | -24
* Nc1ccc2c(c1)C(=O)c1ccc(F)cc1-2 | 1

Now look at this one.
Could you tell me which growth inhibition is on file for CN(C)CCCCN1c2ccccc2Sc2ccc(N=[N+]=[N-])cc21 ?
23
